# Tested on: Escherichia coli TOP10
# Assay remarks: shrunken log2 fold change of peptide-encoding DNA abundance (4.5 h post-induction vs induction); higher = less antimicrobial activity (less host growth inhibition)
# Reported conditions: time post-induction: 4.5 h; library: site-saturation at positions 5, 18, 19, 20
Parameter measured: shrunken log2 fold change

- RRIRLRPPRLPRPRPRPRQFPRP: 0.196
- RRIRLRPPRLPRPRPRPTCVPRP: 0.0314
- RRIRERPPRLPRPRPRPHLYPRP: -0.858
- RRIRQRPPRLPRPRPRPWNTPRP: -0.169
- RRIRGRPPRLPRPRPRPPIWPRP: 0.67
- RRIRGRPPRLPRPRPRPIHWPRP: 0.306

Quick one: give me shrunken log2 fold change for each item below, same order please.
1. RRIRNRPPRLPRPRPRPTMRPRP
2. RRIRVRPPRLPRPRPRPIRMPRP
3. RRIRTRPPRLPRPRPRPEFMPRP
4. RRIRWRPPRLPRPRPRPLNSPRP

1: 0.746; 2: -0.243; 3: 0.0647; 4: -0.107

====

# Tested on: Escherichia coli TOP10
# Assay remarks: shrunken log2 fold change of peptide-encoding DNA abundance (4.5 h post-induction vs induction); higher = less antimicrobial activity (less host growth inhibition)
# Reported conditions: time post-induction: 4.5 h; library: site-saturation at positions 5, 18, 19, 20
Hi there, I'd appreciate the recorded shrunken log2 fold change for every entry that follows.
Give bare numbers.

// below: answered sequences
- RRIRSRPPRLPRPRPRPLERPRP: -0.0196
- RRIRWRPPRLPRPRPRPKTPPRP: 0.894
- RRIRQRPPRLPRPRPRPCTVPRP: -0.521
- RRIRLRPPRLPRPRPRPGVMPRP: 0.0751
- RRIRLRPPRLPRPRPRPWRVPRP: 0.488

Quick one: give me shrunken log2 fold change for each item below, same order please.
1. RRIRDRPPRLPRPRPRPVYNPRP
2. RRIRRRPPRLPRPRPRPMCFPRP
3. RRIRTRPPRLPRPRPRPHSKPRP
4. RRIRARPPRLPRPRPRPKHWPRP
5. RRIRRRPPRLPRPRPRPDEFPRP
6. RRIRRRPPRLPRPRPRPYDTPRP
7. RRIRARPPRLPRPRPRPRLQPRP

1. -0.00379
2. -0.0162
3. -0.2
4. 0.593
5. 0.138
6. 0.0504
7. 0.637

====

# System: Escherichia coli TOP10;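 note: peptides expressed intracellularly from a pBAD plasmid library in pooled LB shake-flask culture, induced with 0.3% L-arabinose, DNA abundance read by NGS, three biological replicates, DESeq2 with apeglm shrinkage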
# Assay remarks: shrunken log2 fold change of peptide-encoding DNA abundance (4.5 h post-induction vs induction); higher = less antimicrobial activity (less host growth inhibition)
# Reported conditions: time post-induction: 4.5 h; library: site-saturation at positions 5, 18, 19, 20
Label FALSE if shrunken log2 fold change falls below 0.02; label TRUE in every other case.

Reference set, count: 3
• RRIRSRPPRLPRPRPRPQFVPRP = FALSE
• RRIRVRPPRLPRPRPRPLQSPRP = TRUE
• RRIRPRPPRLPRPRPRPPEWPRP = TRUE

Check this sequence for shrunken log2 fold change at or above 0.02: RRIRNRPPRLPRPRPRPTCVPRP
FALSE

RRIRHRPPRLPRPRPRPCINPRP , same question.
FALSE

RRIRYRPPRLPRPRPRPMGTPRP , same question.
FALSE

RRIRSRPPRLPRPRPRPFKCPRP , same question.
FALSE

RRIRGRPPRLPRPRPRPSVYPRP , same question.
TRUE

RRIRKRPPRLPRPRPRPQSAPRP , same question.
TRUE

RRIRIRPPRLPRPRPRPCGSPRP , same question.
FALSE

RRIRIRPPRLPRPRPRPLKNPRP , same question.
FALSE

RRIRTRPPRLPRPRPRPIRKPRP , same question.
TRUE

RRIRPRPPRLPRPRPRPSYDPRP , same question.
FALSE

RRIRSRPPRLPRPRPRPFQPPRP , same question.
FALSE

RRIRVRPPRLPRPRPRPHWYPRP , same question.
FALSE

RRIRPRPPRLPRPRPRPSGHPRP , same question.
FALSE

RRIRTRPPRLPRPRPRPVIWPRP , same question.
TRUE

RRIRWRPPRLPRPRPRPQLGPRP , same question.
TRUE

RRIRNRPPRLPRPRPRPLIKPRP , same question.
FALSE

RRIRHRPPRLPRPRPRPWYWPRP , same question.
FALSE

RRIRRRPPRLPRPRPRPYHCPRP , same question.
FALSE

RRIRCRPPRLPRPRPRPCSEPRP , same question.
FALSE

RRIRERPPRLPRPRPRPDVTPRP , same question.
FALSE

These measurements were taken from the supplement of paper PMC9112550.
